Listed next: entries and their corresponding pIC50.
# test_system: Bile salt export pump (Rattus norvegicus, UniProt O70127)
# Sequence (O70127 whole entry): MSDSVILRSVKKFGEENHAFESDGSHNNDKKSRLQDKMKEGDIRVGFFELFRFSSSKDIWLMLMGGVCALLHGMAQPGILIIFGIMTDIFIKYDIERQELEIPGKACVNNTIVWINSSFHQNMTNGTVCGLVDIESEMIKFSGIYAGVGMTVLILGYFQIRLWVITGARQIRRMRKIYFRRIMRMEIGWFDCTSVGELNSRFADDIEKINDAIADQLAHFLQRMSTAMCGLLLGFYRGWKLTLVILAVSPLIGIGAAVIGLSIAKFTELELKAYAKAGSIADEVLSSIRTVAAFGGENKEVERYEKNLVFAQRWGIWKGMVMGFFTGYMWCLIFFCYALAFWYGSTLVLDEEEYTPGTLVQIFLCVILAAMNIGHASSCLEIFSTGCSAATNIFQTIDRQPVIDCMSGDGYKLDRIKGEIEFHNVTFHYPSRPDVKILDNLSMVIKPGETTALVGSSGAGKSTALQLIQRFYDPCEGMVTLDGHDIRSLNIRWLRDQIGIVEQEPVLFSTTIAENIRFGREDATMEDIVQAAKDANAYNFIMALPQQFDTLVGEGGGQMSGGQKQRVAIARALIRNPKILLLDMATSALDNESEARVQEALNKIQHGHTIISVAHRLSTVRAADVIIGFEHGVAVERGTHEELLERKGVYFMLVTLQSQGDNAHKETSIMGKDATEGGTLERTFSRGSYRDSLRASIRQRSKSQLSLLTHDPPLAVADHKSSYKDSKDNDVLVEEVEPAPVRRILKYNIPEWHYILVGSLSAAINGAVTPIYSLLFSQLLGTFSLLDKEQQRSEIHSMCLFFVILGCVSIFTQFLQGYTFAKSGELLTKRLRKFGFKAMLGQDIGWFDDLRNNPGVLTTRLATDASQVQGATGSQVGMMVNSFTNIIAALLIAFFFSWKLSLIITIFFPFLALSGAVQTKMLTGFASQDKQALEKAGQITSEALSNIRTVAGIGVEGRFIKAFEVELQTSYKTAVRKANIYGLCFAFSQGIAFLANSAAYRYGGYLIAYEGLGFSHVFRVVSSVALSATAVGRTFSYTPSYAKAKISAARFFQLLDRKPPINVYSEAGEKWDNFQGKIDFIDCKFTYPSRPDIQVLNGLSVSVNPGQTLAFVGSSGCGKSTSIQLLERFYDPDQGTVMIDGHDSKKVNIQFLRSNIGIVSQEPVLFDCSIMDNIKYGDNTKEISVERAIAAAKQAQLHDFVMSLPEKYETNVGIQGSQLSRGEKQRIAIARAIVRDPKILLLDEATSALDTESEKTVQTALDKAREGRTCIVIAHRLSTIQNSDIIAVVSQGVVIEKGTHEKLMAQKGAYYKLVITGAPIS
# test_name: Inhibition of Sprague-Dawley rat Bsep expressed in plasma membrane vesicles of Sf21 cells assessed as inhibition of ATP-dependent [3H]taurocholate uptake
pIC50: −log10 of the molar value.
measure: pIC50

O=C1CN(/N=C/c2ccc([N+](=O)[O-])o2)C(=O)N1	< 3.00
NNc1nnc(NN)c2ccccc12 [DIHYDRALAZINE]	< 3.00
CC(C)NCC(O)c1ccc(O)c(O)c1 (stereo unspecified)	< 3.00
O=C(O)[C@H]1/C(=C/CO)O[C@@H]2CC(=O)N21	< 3.00
CCCC(CCC)C(=O)O	< 3.00
CC(N/C(=N\C#N)Nc1ccncc1)C(C)(C)C (stereo unspecified) [PINACIDIL ANHYDROUS]	3.65

----------
Entries and their pIC50
# test_system: UniProt O70127
# test_name: Inhibition of Sprague-Dawley rat Bsep expressed in plasma membrane vesicles of Sf21 cells assessed as inhibition of ATP-dependent [3H]taurocholate uptake
pIC50: −log10 of the molar value.
measure: pIC50

CCCN(CCC)C(=O)Cc1c(-c2ccc(Cl)cc2)nc2ccc(Cl)cn12 [ALPIDEM]	4.64
O=C(C1CCCCC1)N1CC(=O)N2CCc3ccccc3C2C1 (centres undefined) [PRAZIQUANTEL]	3.81
CN(C)CCCN1c2ccccc2Sc2ccc(Cl)cc21 [CHLORPROMAZINE]	3.91
CCC(=O)O[C@]1(C(=O)CCl)[C@@H](C)C[C@H]2[C@@H]3CCC4=CC(=O)C=C[C@]4(C)[C@@]3(F)[C@@H](O)C[C@@]21C [CLOBETASOL PROPIONATE]	4.46
CCCN(CCC)S(=O)(=O)c1ccc(C(=O)O)cc1 [PROBENECID]	3.29

----------
# test_system: UniProt:O95342
# test_name: Inhibition of human BSEP expressed in plasma membrane vesicles of Sf21 cells assessed as inhibition of ATP-dependent [3H]taurocholate uptake
pIC50: −log10 of the molar value.
measure: pIC50

CC(=O)O[C@H]1C[C@@]2(C)[C@@H](C[C@@H](O)[C@H]3[C@@]4(C)CC[C@@H](O)[C@@H](C)[C@@H]4CC[C@@]32C)/C1=C(\CCC=C(C)C)C(=O)O	4.94
CC(C)C(=O)Nc1ccc([N+](=O)[O-])c(C(F)(F)F)c1 [FLUTAMIDE]	3.84
CN(C)CCCN1c2ccccc2Sc2ccc(Cl)cc21	3.83
CC(C(=O)O)c1ccc2oc(-c3ccc(Cl)cc3)nc2c1 (centres undefined)	3.76

----------
# test_system: Bile salt export pump (Homo sapiens, UniProt O95342)
# Sequence (O95342 whole entry): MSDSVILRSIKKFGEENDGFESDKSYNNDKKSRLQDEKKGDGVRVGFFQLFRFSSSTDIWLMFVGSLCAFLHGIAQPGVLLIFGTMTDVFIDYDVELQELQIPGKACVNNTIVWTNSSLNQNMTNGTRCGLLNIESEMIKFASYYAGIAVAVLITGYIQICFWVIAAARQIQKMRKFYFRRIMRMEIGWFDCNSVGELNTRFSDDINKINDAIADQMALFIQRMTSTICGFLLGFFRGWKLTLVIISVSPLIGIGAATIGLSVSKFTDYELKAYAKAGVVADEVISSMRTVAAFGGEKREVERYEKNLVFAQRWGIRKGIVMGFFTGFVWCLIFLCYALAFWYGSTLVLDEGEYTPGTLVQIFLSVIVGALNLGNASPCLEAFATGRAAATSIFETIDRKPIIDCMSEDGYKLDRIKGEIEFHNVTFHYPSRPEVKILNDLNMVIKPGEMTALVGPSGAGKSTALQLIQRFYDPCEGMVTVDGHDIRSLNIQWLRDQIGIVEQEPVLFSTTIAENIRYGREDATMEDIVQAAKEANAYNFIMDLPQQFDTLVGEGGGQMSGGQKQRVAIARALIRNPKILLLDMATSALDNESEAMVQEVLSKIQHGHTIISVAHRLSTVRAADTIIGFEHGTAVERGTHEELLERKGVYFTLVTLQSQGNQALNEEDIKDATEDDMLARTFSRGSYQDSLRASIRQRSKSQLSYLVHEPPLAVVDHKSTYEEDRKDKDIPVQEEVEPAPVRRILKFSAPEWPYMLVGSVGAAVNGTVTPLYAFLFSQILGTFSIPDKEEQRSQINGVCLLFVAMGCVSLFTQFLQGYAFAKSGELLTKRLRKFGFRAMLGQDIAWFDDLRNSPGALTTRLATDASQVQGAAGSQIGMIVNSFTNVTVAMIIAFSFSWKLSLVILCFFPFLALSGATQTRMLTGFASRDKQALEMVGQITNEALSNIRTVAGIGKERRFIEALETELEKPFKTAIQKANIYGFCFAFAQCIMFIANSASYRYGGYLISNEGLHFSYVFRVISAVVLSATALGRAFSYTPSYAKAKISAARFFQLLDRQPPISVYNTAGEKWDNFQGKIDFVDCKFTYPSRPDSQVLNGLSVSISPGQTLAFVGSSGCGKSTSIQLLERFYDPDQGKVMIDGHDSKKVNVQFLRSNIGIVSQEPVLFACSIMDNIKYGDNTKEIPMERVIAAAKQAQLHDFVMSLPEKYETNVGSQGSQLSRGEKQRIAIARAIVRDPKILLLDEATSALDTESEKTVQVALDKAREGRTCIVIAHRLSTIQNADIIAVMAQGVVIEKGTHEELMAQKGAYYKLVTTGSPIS
# test_name: Inhibition of human BSEP expressed in plasma membrane vesicles of Sf21 cells assessed as inhibition of ATP-dependent [3H]taurocholate uptake
measure: IC50

COc1cc2c(cc1OC)C(=O)C(CC1CCN(Cc3ccccc3)CC1)C2 (stereo unspecified)	206 µM
CCC(=O)O[C@]1(C(=O)CCl)[C@@H](C)C[C@H]2[C@@H]3CCC4=CC(=O)C=C[C@]4(C)[C@@]3(F)[C@@H](O)C[C@@]21C [CLOBETASOL PROPIONATE]	8.5 µM
CC(=O)Nc1ccc(O)cc1	> 1000 µM
CC1(C)S[C@@H]2[C@H](NC(=O)[C@H](N)c3ccc(O)cc3)C(=O)N2[C@H]1C(=O)O	> 1000 µM
O=C1CC2(CCCC2)CC(=O)N1CCCCN1CCN(c2ncccn2)CC1	105 µM
Cc1onc(-c2c(F)cccc2Cl)c1C(=O)N[C@@H]1C(=O)N2[C@@H]1SC(C)(C)[C@@H]2C(=O)O	209 µM
